Molecular target: Glucocorticoid receptor (Homo sapiens)
Assay: qHTS assay to identify small molecule agonists of the glucocorticoid receptor (GR) signaling pathway (AID 720691)
Conditions: GR-bla HeLa, beta-lactamase reporter ratio, 18 h
Source text: U.S. Tox21 Program National Center for Advancing Translational Sciences [NCATS] NIH Chemical Genomics Center [NCGC] U.S. Environmental Protection Agency [EPA] National Institutes of Environmental Health Sciences [NIEHS] National Toxicology Program [NTP] U.S. Food and Drug Administration [FDA] […] The activation of the reporter gene under culture conditions can be detected by fluorescence intensity. […]
Activity calls are given as the source filed them. Calls follow the shape of the dose curve; as a rule, active = well fitted activation curve with a large enough effect in the signal ratio in the repeat runs (not every such curve was filed as active); inconclusive = weak or mixed curves, or effect the other way; inactive = no such curve, though single readings can be large or run the other way; the % refers to the signal ratio. Non-standard residues stand in square brackets, D forms with d. Residues, ends and D or L forms follow the SMILES beside them. Orn = NCCC[C@H](N)C(=O)O
The reply should name one outcome from active, inactive

(Q) Check the results log: what was the call for `OCCCNc1ccccc1` ?
(A) inactive

(Q) Short answer needed: outcome of this test for CC(C)C[C@@H]1NC(=O)[C@H](CCCN)NC(=O)[C@H](C(C)C)NC(=O)[C@@H]2CCCN2C(=O)[C@@H](Cc2ccccc2)NC(=O)[C@H](CC(C)C)NC(=O)[C@H](CCCN)NC(=O)[C@H](C(C)C)NC(=O)[C@@H]2CCCN2C(=O)[C@@H](Cc2ccccc2)NC1=O (cyclo(V[Orn]L[dF]PV[Orn]L[dF]P)) ?
(A) active

(Q) Outcome logged for `O=C(O)/C=C/C(=O)Nc1ccc(S(=O)(=O)Nc2nccs2)cc1` in this assay:
(A) inactive

Origin of measurements: PubChem BioAssay (Tox21)
